- Target of assay: Tumor necrosis factor receptor superfamily member 10B (Homo sapiens) (UniProt O14763)
- Sequence (O14763 whole entry, looked up): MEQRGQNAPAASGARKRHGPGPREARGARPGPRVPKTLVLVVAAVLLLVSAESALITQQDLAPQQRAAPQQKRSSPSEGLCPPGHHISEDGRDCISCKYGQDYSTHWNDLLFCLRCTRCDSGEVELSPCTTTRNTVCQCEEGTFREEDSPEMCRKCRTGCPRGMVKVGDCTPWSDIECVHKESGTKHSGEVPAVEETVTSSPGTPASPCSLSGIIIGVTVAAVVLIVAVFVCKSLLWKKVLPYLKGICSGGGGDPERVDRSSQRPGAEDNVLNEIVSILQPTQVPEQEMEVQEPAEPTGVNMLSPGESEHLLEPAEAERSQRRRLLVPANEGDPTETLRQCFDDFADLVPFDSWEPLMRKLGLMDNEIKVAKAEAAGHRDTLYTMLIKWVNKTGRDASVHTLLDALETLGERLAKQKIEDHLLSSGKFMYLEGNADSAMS
- Method summary: caspase-8 TRAIL sensitization, hit retest, confirmation, cell-based, NB7+caspase-8, with/without TRAIL, luminescence panel (AID 651596)
- Condition: NB7 neuroblastoma + caspase-8, TRAIL sensitization, luminescence viability, with TRAIL, mean of runs, at 10 µM, stronger effect = higher value
# label = Condition met if activity < 50% else Condition not met

1. Cc1ccccc1Nc1nn2c(=O)c3ccccc3nc2s1 : Condition not met
2. CCOC(=O)C1CCN(C(=O)C2c3ccccc3C(=O)N(C)C2c2ccc(OC)cc2)CC1 (configuration not stated) : Condition not met
3. c1ccc2[nH]c(-c3ccc4c(c3)OCO4)nc2c1 : Condition not met
4. CCc1nnc(NC(=O)CSc2nc(C)cc(C)c2C#N)s1 : Condition not met
5. CN1C(=O)c2ccccc2C(C(=O)NCCCN2CCCC2)C1c1c[nH]c2ccccc12 (configuration not stated) : Condition met
6. C=CCN=c1scc(-c2ccccc2)n1/N=C/c1ccccn1 : Condition met
7. CC(=O)Nc1nc2ccccc2n1CCOc1ccccc1 : Condition met
8. O=C(CCl)N(C/C=C/c1ccccc1)c1ccc2c(c1)OCCO2 : Condition not met
9. C/C(=N\NC(=O)c1ccc(F)cc1)c1ccccn1 : Condition met
10. CC(=O)n1cc(N(C(=O)CCl)c2ccccc2)c2ccccc21 : Condition not met
11. COc1cc(OC)cc(C(=O)Nc2ccc3c(c2)OCCO3)c1 : Condition met
12. O=c1c2ccccc2sc2ccc(C#CC3(O)CCCCC3)cc12 : Condition not met
13. CCC(C)c1ccc(O)c(/C=N/O)c1 (configuration not stated) : Condition met
14. N/C(=N\OC(=O)c1ccc([N+](=O)[O-])cc1Cl)c1ccccn1 : Condition not met
15. O=C(Nc1nc2ccccc2[nH]1)c1ccc(Cl)cc1 : Condition not met
16. CN(C)C(=O)N1CCN(c2nc(-c3ccccc3)cs2)CC1 : Condition met
17. CCOc1ccc2nc(-c3ccccc3)[nH]c2c1 : Condition not met
18. c1ccc(-c2cc3cc4c(cc3cn2)OCO4)cc1 : Condition met
19. CSc1ccc(/C=N/NC(=O)c2cccc(O)c2)cc1 : Condition not met
20. COc1ccccc1C(=O)Nc1nc(-c2ccc(S(=O)(=O)N3CCOCC3)cc2)cs1 : Condition not met
21. O=c1[nH]c(/C=C/c2ccccc2Cl)nc2ccccc12 : Condition not met
22. Cc1ccc(C(=O)N/N=C\c2ccc[nH]2)cc1[N+](=O)[O-] : Condition not met
23. CC(=O)c1cccc(NC(=O)CSc2ccc(-c3ccc4c(c3)OCO4)nn2)c1 : Condition not met
24. CCCCc1ccc(NC(=O)c2cnccn2)cc1 : Condition not met
25. Cc1cc(N/N=C\c2ccccc2)nc(-c2ccccc2O)n1 : Condition met

====

- Method summary: caspase-8 TRAIL sensitization, hit retest, confirmation, cell-based, NB7+caspase-8, with/without TRAIL, luminescence panel (AID 651596)
- Condition: NB7 neuroblastoma + caspase-8, without TRAIL, luminescence viability, without TRAIL, mean of runs, at 10 µM
Observable: activity (%)

1) C=C(C)[C@@H]1C2=CC(C(=O)OC)=C(C[C@H](C(=C)C)[C@H]3O[C@H]3C3=C[C@H]1OC3=O)O2 : 96
2) CCCCCc1cc(=O)oc2c(C(CCN(CC)CC)c3cc(OC)c(OC)c(OC)c3)c(OC)cc(OC)c12 (stereo unspecified) : 54.7
3) O=C(Nc1nc2ccccc2[nH]1)C12CC3CC(CC(C3)C1)C2 : 65.7
4) CCc1ccc(/C=N/Nc2ncnc3nc[nH]c23)cc1 : 41.7
5) C=CCn1c(C)cc(C(=O)CN2C(=O)c3ccccc3C2=O)c1C : 57.3
6) COc1ccc(-c2nc(-c3ccccn3)no2)cc1 : 95.7
7) CC(=O)c1c(C)[nH]c(C(=O)Nc2nc(C)cs2)c1C : 82.6
8) C#CC(=O)N(c1cccc(OC)c1)C(C(=O)NC1CCCC1)c1cccs1 (stereo unspecified) : 99.5
9) O=C(COc1ccc2c(c1)OCO2)Nc1nccs1 : 54
10) O=C(Nc1ccc2c(c1)nc1n2CCSC1)c1ccco1 : 75.2
11) CC(O)CC(=O)OC[C@]12CC[C@H]3[C@@](C)(CC[C@H]4C(C)(C)CCC[C@]34C)[C@@H]1CC(C1=CC(=O)OC1O)O2 (stereo partly specified) : 93

====

- Method summary: caspase-8 TRAIL sensitization, hit retest, confirmation, cell-based, NB7+caspase-8, with/without TRAIL, luminescence panel (AID 651596)
- Condition: NB7 neuroblastoma + caspase-8, without TRAIL, luminescence viability, without TRAIL, mean of runs, at 10 µM
Observable: activity (%)

1. COc1cccc2cc(-c3nc4ccccc4[nH]3)c(=O)oc12 : 61.1
2. CSc1nc2ccc(NC(=O)c3ccccn3)cc2s1 : 80
3. O=C(Nc1ccc2ccccc2c1)c1ccc(Cl)cc1Cl : 60.5

====

- Target of assay: Tumor necrosis factor receptor superfamily member 10B (Homo sapiens) (UniProt O14763)
- Method summary: caspase-8 TRAIL sensitization, hit retest, confirmation, cell-based, NB7+caspase-8, with/without TRAIL, luminescence panel (AID 651596)
- Condition: NB7 neuroblastoma + caspase-8, TRAIL sensitization, luminescence viability, with TRAIL, mean of runs, at 10 µM, stronger effect = higher value
activity listing for selected molecules.
Observable: activity (%)

1) O=[N+]([O-])c1ccc(-[n+]2ccc3ccccc3c2)c([N+](=O)[O-])c1 : 93.3
2) Cc1cccc(-n2ncc(Cl)c(Cl)c2=O)c1 : 99.6
3) N#Cc1c(NC(=O)c2ccccc2)sc2c1CCCCC2 : 46.5
4) Cc1nc(N)nc(N)c1-c1ccc([N+](=O)[O-])cc1 : 71.8
5) COc1ccc(N2Cc3ccc(OC)c(OC)c3C2=O)cc1 : 40.6
6) Nc1ccc(C(=O)Nc2nc3ccccc3s2)cc1 : 44.8
7) O=C(CCl)N1c2ccccc2SCC1c1ccccc1 (stereo not given) : 99.4
8) O=C(NOCc1ccccc1)c1ccc(Cl)cc1 : 45.1
9) CCOc1ccc(-c2ccc(SCC(=O)NCC3CCCO3)nn2)cc1 (stereo not given) : 41.8
10) COc1cc(/C=C2\Oc3ccc(C#Cc4ccc(O)cc4)cc3C2=O)cc(OC)c1 : 80.5
11) Cc1cccc(NC(=O)c2onc3c2CCCC3)n1 : 85.6
12) O=C(Nc1nc2ccccc2[nH]1)c1ccccc1 : 88
13) CCOc1cc(C(=O)O/N=C(\N)c2ccccn2)cc(OCC)c1OCC : 91.1
14) COc1oc(C(=O)NC2CCCCC2)c(-c2ccc(Cl)cc2)c1S(=O)(=O)c1ccccc1 : 97.8
15) C=CCNc1nc(NCc2ccc(NC(C)=O)cc2)c2sc(-c3ccccc3)cc2n1 : 46.1

====

- Target of assay: Sentrin-specific protease 8 (Homo sapiens)
- Method summary: SENP8 protease inhibitors, retest, confirmation, biochemical, luminescence, single concentration (AID 488912)
- Condition: Recombinant SENP8, Z-RLRGG-aminoluciferin luminescence, 60 min; at 12.5 µM; stronger effect = higher value
This is one part of the list.
Tag: Fulfilled if measured inhibition is not below 50%, Not fulfilled if it is.

1. O=C(Nc1ccccc1)c1cc2ccccc2[nH]1 : Not fulfilled
2. CCc1noc(C)c1C(=O)Nc1nc2ccc(OC)cc2s1 : Not fulfilled
3. COc1ccc2occ(C(=O)c3ccc(N=C(C)N(C)C)cc3)c2c1 : Not fulfilled
4. Oc1ccc(Br)cc1C=Nc1ccc2[nH]ncc2c1 : Not fulfilled
5. COc1ccc(N=C(C)c2sc3ccccc3c2O)cc1 : Not fulfilled
6. CCOC(=O)c1cccc(NC(=O)c2ccc(F)cc2F)c1 : Fulfilled
7. Cc1nc(NC(=O)c2ccc3c(c2)OCCO3)ccc1Br : Fulfilled
8. Cc1ccc2cc3cc(C(=O)N4CCCCCC4)oc3nc2c1 : Not fulfilled
9. c1ccc(-c2noc(-c3cccs3)n2)nc1 : Fulfilled
10. COc1ccccc1NC(=O)c1ccc(N2CC3CC(C2)c2cccc(=O)n2C3)c(NC(=O)c2cccnc2)c1 (stereo not given) : Not fulfilled
11. COc1ccc(C(=O)Nc2ccccc2C(=O)N/N=C/c2ccc(O)c(OC)c2)cc1 : Fulfilled
12. COc1cc(SC)ccc1C(=O)Nc1cc(C)ccn1 : Not fulfilled
13. Cc1ccc(S(=O)(=O)Nc2nc3ccccc3nc2N2CCc3ccccc3C2)cc1 : Not fulfilled

====

- Target of assay: Tumor necrosis factor receptor superfamily member 10B (Homo sapiens) (UniProt O14763)
- Method summary: caspase-8 TRAIL sensitization, hit retest, confirmation, cell-based, NB7+caspase-8, with/without TRAIL, luminescence panel (AID 651596)
- Condition: NB7 neuroblastoma + caspase-8, TRAIL sensitization, luminescence viability, with TRAIL, mean of runs, at 10 µM, stronger effect = higher value
As shown below, each of these compounds has a reported activity value.
Observable: activity (%)

1) CCC[C@H](CN[C@@H](CNC)[C@H](C)CC)NCCc1cc(C(F)(F)F)cc(C(F)(F)F)c1 : 65.7
2) FC(F)(F)c1cccc(-c2nc3nc(Cl)c(Cl)nc3[nH]2)c1 : 57.3
3) Cc1oc(-c2nc3ccccc3n2C)cc1C(=O)c1ccccc1 : 81.4
4) COc1ccc(/C=C/c2nc3ccccc3c(=O)o2)cc1 : 83.2
5) c1ccc(-c2cnc(-c3ccccn3)nn2)cc1 : 61.4
6) Cc1ccc(-n2[nH]c(C)c(C=Nc3ccc4[nH]c(=O)[nH]c4c3)c2=O)cc1C : 51.4
7) CCOc1ccc(/C=C/C(=O)Nc2cccc(C(C)=O)c2)cc1 : 50.7
8) Cc1ccccc1-c1nnc(SCC(=O)Nc2cccnc2Cl)o1 : 68.8
9) C#CCSc1nnc(-c2ccc(C)cc2)o1 : 97.6
10) N/C(Cc1ccc(Cl)cc1)=N\OC(=O)c1cccc2ccccc12 : 99
11) Cc1ccc2nc(NC(=O)c3ccc(-c4nc5ccccc5s4)s3)sc2c1 : 56.8
12) Cc1ccsc1C(=O)Nc1nc2ccccc2[nH]1 : 82
13) O=C1c2ccccc2NC(c2ccccc2)N1/N=C/c1ccccc1 (centres undefined) : 52.5
14) Cc1ccc(C(=O)Nc2ccc3c(c2)CCC3)cc1 : 78.7
15) CCCn1c(Nc2nc3ccccc3n2C)nc2ccccc21 : 38.1
16) Cc1cccc(/C(N)=N/OC(=O)c2ccoc2C)c1 : 90.8
17) CCC1CCCCN1Cc1nc(Cc2ccccc2Cl)no1 (centres undefined) : -9.55
18) COc1ccc(-c2cn3ccsc3n2)cc1 : 64.2
19) Cc1nc(NC(=S)NC(=O)c2ccccc2)sc1C : 57.1
20) CN(C)c1ccc(C=Nc2ccccc2C(N)=O)cc1 : 85.3
21) CC(C)C[C@H](NC(=O)c1nc[nH]c1C(=O)N[C@@H](CC(C)C)C(=O)OCc1ccccc1)C(=O)OCc1ccccc1 : 71.4
22) CC(=O)n1cc(N(C(=O)CCl)c2ccc(Cl)cc2)c2ccccc21 : 98.5
23) Cc1nc2c(-c3ccc(F)cc3)cnn2c(N)c1-c1ccccc1 : 88.4
24) Cc1cc(C)cc(NS(=O)(=O)c2ccc3[nH]cc(C(=O)NCc4ccco4)c(=O)c3c2)c1 : 80

From: PubChem BioAssay
